- System: EGFR mutant L858R Ba/F3 cells
- EXPERIMENT_DESCRIPTION: Ba/F3 cell proliferation (Cell Titer Glo), L858R
- Type: cell-based, murine
- SETUP_CONDITIONS: Mus musculus, BaF3, 72 hours, read-out: LR BaF3 cell IC50
pIC50: −log10 of the molar value.
Label scheme for pIC50: lower than 6 is no (0), 6 and above is yes (1).

CN1CCC(c2ccc(-c3ccc4c(c3)OCN(C(c3nc5ccccc5[nH]3)c3cc(F)ccc3O)C4=O)cc2)CC1 (centres unmarked)
no (0)

Kindly consider the entry below.
Please indicate if the recorded pIC50 for CN1CCC(c2ccc(-c3ccc4c(c3)C(=O)N(C(c3nc5ccccc5[nH]3)c3cc(F)ccc3O)CO4)cc2)CC1 (centres unmarked) [Compound 007, 2,2,2-trifluoroacetate] meets or exceeds 6.
yes (1)

====

- MEASURED_ON: EGFR L858R (Homo sapiens (Human), UniProt P00533, L858R)
- Sequence (P00533 25-1210 L858R): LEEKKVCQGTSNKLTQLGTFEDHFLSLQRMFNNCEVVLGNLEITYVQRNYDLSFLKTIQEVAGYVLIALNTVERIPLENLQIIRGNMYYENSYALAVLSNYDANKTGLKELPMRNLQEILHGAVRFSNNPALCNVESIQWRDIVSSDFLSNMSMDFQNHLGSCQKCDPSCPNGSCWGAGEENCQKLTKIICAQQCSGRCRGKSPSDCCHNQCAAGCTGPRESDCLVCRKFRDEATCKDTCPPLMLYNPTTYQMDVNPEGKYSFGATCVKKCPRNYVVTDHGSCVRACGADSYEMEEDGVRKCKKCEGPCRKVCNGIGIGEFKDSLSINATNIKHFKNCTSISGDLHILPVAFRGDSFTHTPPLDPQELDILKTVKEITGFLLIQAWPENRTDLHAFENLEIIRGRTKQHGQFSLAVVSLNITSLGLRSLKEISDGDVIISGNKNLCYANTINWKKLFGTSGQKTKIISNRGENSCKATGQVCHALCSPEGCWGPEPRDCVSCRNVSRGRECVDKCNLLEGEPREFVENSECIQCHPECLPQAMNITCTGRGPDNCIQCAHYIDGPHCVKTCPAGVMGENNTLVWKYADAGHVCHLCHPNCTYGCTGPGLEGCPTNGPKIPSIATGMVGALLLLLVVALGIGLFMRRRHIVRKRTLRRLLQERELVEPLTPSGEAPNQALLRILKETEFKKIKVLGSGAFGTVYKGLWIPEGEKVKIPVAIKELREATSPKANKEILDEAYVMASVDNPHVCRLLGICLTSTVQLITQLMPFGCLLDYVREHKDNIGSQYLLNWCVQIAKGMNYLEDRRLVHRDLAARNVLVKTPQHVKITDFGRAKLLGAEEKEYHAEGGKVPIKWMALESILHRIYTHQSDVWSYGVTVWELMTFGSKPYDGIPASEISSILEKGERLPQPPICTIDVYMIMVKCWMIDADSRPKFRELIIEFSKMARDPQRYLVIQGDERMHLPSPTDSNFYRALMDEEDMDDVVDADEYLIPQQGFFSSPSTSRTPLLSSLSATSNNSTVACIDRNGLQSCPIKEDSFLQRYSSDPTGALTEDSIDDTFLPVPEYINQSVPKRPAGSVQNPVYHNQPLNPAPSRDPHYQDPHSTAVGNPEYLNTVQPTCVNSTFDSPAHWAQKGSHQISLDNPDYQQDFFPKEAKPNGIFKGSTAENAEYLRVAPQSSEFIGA
- EXPERIMENT_DESCRIPTION: HTRF-based EGFR biochemical assay, L858R
- SETUP_CONDITIONS: L858R 0.1 nM enzyme, 100 μM ATP; read-out: LR enzyme IC50
OBSERVABLE: pIC50
// pIC50: -log10(molar conc.)

Previously resolved entries follow.
CN1CCC(c2ccc(-c3ccc4c(c3)C(=O)N(C(c3nc5ccccc5[nH]3)c3cc(F)ccc3O)CO4)cc2)CC1 (stereo not shown) [Compound 007, 2,2,2-trifluoroacetate]
8.72
CN1CCC(c2ccc(-c3ccc4c(c3)C(=O)N(C(C(=O)Nc3nccs3)c3cccc(F)c3)CO4)cc2)CC1 (stereo not shown)
8.55
CN1CCC(c2ccc(-c3ccc4c(c3F)C(=O)N(C(C(=O)Nc3nccs3)c3ccccc3)CO4)cc2)CC1 (stereo not shown)
8.43
CN1CCC(c2ccc(-c3ccc4c(c3)OCN(C(c3nc5ccccc5[nH]3)c3cc(F)ccc3O)C4=O)cc2)CC1 (stereo not shown)
8.44
CN1CCC(c2ccc(-c3ccc4c(c3)C(=O)N(C(C(=O)Nc3nccs3)c3ccccc3)CO4)cc2)CC1 (stereo not shown)
7.64

Here is the next item to consider.
The recorded pIC50 for CN1CCN(c2ccc(-c3ccc4c(c3)C(=O)N(C(C(=O)Nc3nccs3)c3cccc(F)c3)CO4)cc2)CC1 (stereo not shown) is 7.64

====

- Test system: EGFR mutant L858R Ba/F3 cells
- EXPERIMENT_DESCRIPTION: Ba/F3 cell proliferation (Cell Titer Glo), L858R
- Type: cell-based, murine
- SETUP_CONDITIONS: Mus musculus, BaF3, 72 hours, read-out: LR BaF3 cell IC50
OBSERVABLE: pIC50
// pIC50: -log10(molar conc.)

Previously resolved entries follow.
CN1CCC(c2ccc(-c3ccc4c(c3)C(=O)N(C(C(=O)Nc3nccs3)c3ccccc3)CO4)cc2)CC1 (stereo not drawn) [Compound 003]
5.90
CN1CCC(c2ccc(-c3ccc4c(c3)C(=O)N(C(C(=O)Nc3nccs3)c3cccc(F)c3)CO4)cc2)CC1 (stereo not drawn) [Compound 001]
5.83

Here is the next item to consider.
The recorded pIC50 for CN1CCC(c2ccc(-c3ccc4c(c3F)C(=O)N(C(C(=O)Nc3nccs3)c3ccccc3)CO4)cc2)CC1 (stereo not drawn) [Compound 005] is 5.98
